- Test system: B16-F10
- Assay summary: Cytotoxicity against mouse B16F10 cells assessed as reduction in cell viability incubated for 24 hrs by MTT assay
- Format: functional, cell-based
- Condition summary: B16-F10, 24 h
Result type: IC50 (µM)
Answers are plain numbers, in µM.

What measured IC50 goes with "C=C1C(=O)O[C@H]2[C@H]1CCC(C)=C1C[C@H]3O[C@@]3(C)[C@@H]12" ?
6.6

====

Give pIC50 for every item shown.
- Tested on: COLO 205
- Assay summary: Cytotoxicity against human COLO205 cells after 72 hrs by MTT assay
- Type: functional, cell-based
- Condition summary: COLO 205, 72 h
pIC50: −log10 of the molar value.

- Molecule: "C=C1C(=O)O[C@H]2[C@H]1[C@@H](O)C[C@]1(C)O[C@@]13C(=O)C=C(C)[C@H]23"
  Tested system: "COLO 205"
  Result: "5.00 to 5.15"

With those in mind, consider the next molecule.
What measured pIC50 goes with C=C1C(=O)O[C@H]2[C@H]1[C@@H](OC(=O)C(C)CC)CC(=C)[C@]1(O)CC=C(C)[C@H]21 (some centres not stated) ?
5.00 to 5.15
